- STUDY SYSTEM: Replicative DNA helicase DnaB (Mycobacterium tuberculosis, UniProt P9WMR3)
- Sequence (P9WMR3 1-399, added parts left off): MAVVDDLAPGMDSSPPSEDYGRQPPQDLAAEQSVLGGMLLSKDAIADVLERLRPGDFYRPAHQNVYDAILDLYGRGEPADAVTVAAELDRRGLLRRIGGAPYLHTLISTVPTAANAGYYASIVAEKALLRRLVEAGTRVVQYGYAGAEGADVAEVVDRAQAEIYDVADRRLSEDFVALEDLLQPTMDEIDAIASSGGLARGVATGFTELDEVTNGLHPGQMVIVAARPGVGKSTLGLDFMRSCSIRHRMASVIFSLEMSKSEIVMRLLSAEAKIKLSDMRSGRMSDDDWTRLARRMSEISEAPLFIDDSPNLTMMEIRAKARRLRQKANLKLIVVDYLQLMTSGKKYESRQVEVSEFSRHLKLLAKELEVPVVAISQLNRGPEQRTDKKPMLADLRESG
- TEST SUMMARY: DnaB intein splicing inhibitors, dose response, biochemical, cell-free fluorescence (AID 449749)
- Assay type: functional
Active and inactive are the calls of the source. No stated cut-off is given here; in the data, actives have a measured AC50 and inactives only a lower limit.
AC50 values by entry
ATTRIBUTE MEASURED: AC50

| COMPOUND | VALUE OBSERVED |
| --- | --- |
| Cc1cc(C)cc(CC(Cc2nc3ccccc3[nH]2)c2nc3ccccc3[nH]2)c1 (centres undefined) | 8.31 µM (active) |
| COC(=O)c1ccccc1NC(=S)NC(=O)c1ccc(C)cc1 | 0.452 µM (active) |
| Cc1ccc(-c2[nH]nc3c2C(c2ccsc2)C(C#N)=C(N)O3)cc1 (centres undefined) | 3.26 µM (active) |
| CCOC(=O)c1c(NC(=O)COC(=O)c2ncc(Cl)c(Cl)c2Cl)sc(C(=O)N(C)C)c1C | 14.1 µM (active) |
